All values here come from PubChem BioAssay (NCI).

Assay: NCI Yeast Anticancer Drug Screen. Data for the mlh1 rad18 strain (AID 175)
Conditions: S. cerevisiae mlh1 rad18 strain growth inhibition; at 50.0 µM; active compounds read high
Compounds without any hit were thinned out: in the full panel of roughly 79,000, 15% have a hit.
observation type: growth inhibition (%)
One number for each entry, in %.

Recorded results for 5 compounds are shown here.
[[record]]
structure_smiles = "N#C/C(=N/Nc1ccccc1)c1ccccc1"
observation_type = "growth inhibition"
test_value = -7.95

[[record]]
structure_smiles = "CN(C)c1nc(Cl)nc2c1ncn2-c1ccccc1"
observation_type = "growth inhibition"
test_value = -5.1

[[record]]
structure_smiles = "CC(/C=C/C=C(\\C)C(=O)O)=C\\C=C\\C=C(C)\\C=C\\C=C(/C)C(=O)O"
observation_type = "growth inhibition"
test_value = 17.9

[[record]]
structure_smiles = "N#CCCc1ccc[nH]1"
observation_type = "growth inhibition"
test_value = -5.85

[[record]]
structure_smiles = "CC(=O)N(Cl)c1ccc(N=Nc2ccccc2)cc1F"
observation_type = "growth inhibition"
test_value = 6.8


Each of the following entries comes with a recorded value; kindly state growth inhibition for each.
1. CN(C)c1ccc2[nH]cc(C(=O)O)c(=O)c2c1
2. Nc1c2ccccc2nc2nccnc12

### Response
7.35
30.4

* * *

Please respond with reported growth inhibition for every item in the list.
Test: NCI Yeast Anticancer Drug Screen. Data for the mec2-1 strain (AID 157)
Details: S. cerevisiae mec2-1 strain, at 50.0 µM, active compounds read high
Method: Growth inhibition of yeast strains with defined genetic alterations is measured as a screen for potential anti-cancer activity. Selected strains with alterations in DNA damage repair or cell cycle control were exposed to compounds and growth inhibition was measured relative to vehicle treated controls. The strain used in this assay is mec2-1
About 79,000 compounds went through this panel and 15% of them were active in at least one assay; those are over-represented in the sample as a whole.
One number for each entry, in %.

Record excerpt, results attached:
[[record]]
molecule = "COc1cc2c3c(c1OC)C1(C=CC(=O)C=C1)CC3NCC2 (stereo unspecified)"
test_value = -4.8

[[record]]
molecule = "O=C(O)C=C(CBr)CBr"
test_value = -3

[[record]]
molecule = "CC1(C)CCCCC1/C=C/C(CC(O)(C(F)(F)F)C(F)(F)F)=N\\Nc1ccc([N+](=O)[O-])cc1[N+](=O)[O-] (stereo unspecified)"
test_value = 9.1

[[record]]
molecule = "O=c1ccc2c([nH]1)CCCC2"
test_value = -8.25

[[record]]
molecule = "Cc1nc2cccc([N+](=O)[O-])c2s1"
test_value = 1.7

[[record]]
molecule = "O=C1CCCCCCCC(=O)Nc2ccc3nc4ccccc4c(c3c2)SCCCCCCCCCCCCSc2c3ccccc3nc3ccc(cc23)N1"
test_value = -6.5

[[record]]
molecule = "S=C1NNC(=S)NN1"
test_value = 29.8

[[record]]
molecule = "CCOc1ccc(N=C(NC(=O)c2ccccc2)SC)cc1"
test_value = -0.7

[[record]]
molecule = "CC(=O)NC1C(OCc2ccccc2)OC(CO)C(O)C1OC(C)C(=O)NC(C)C(=O)N[C@@H](CCC(=O)OCCCNC1c2ccccc2Nc2cccc([N+](=O)[O-])c21)C(N)=O (stereo partly specified)"
test_value = 82.7

[[record]]
molecule = "Cn1c2c(c3ccccc31)CCN(CCCCN1CCc3c(n(C)c4ccccc34)C1=O)C2"
test_value = -24.4


### Prompt Data request, read-out growth inhibition, for C=C1C(=O)OC2C[C@@]3(C)CCCC(=C)C3CC12 (stereo partly specified)
### Response 21.1

* * *

Assay: NCI Yeast Anticancer Drug Screen. Data for the rad50 strain (AID 155);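 further: 0% = growth of vehicle-only cultures of the same strain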
Settings: S. cerevisiae rad50 strain growth inhibition; at 50.0 µM
Experimental: Growth inhibition of yeast strains with defined genetic alterations is measured as a screen for potential anti-cancer activity. Selected strains with alterations in DNA damage repair or cell cycle control were exposed to compounds and growth inhibition was measured relative to vehicle treated controls. The strain used in this assay is rad50
Compounds without any hit were thinned out: in the full panel of roughly 79,000, 15% have a hit. Active and inactive are the calls of the source. No stated cut-off is given here; in the data, active means growth inhibition above about 70%; inactive means the rest.
The reply should be one of these categories: label 1 for active, label 0 for inactive

[[record]]
compound = "Cc1ccc(S(=O)(=O)NN=C2CC3C4CCC5C4CC3C25)cc1 (stereo not given)"
class_name = "label 0"

[[record]]
compound = "CC(C)C(=O)Nc1nc(OCCc2ccc([N+](=O)[O-])cc2)c2ncn(C3CC(O)C(CO)O3)c2n1 (stereo not given)"
class_name = "label 0"

[[record]]
compound = "C=C(Cl)CSC(C)(C)C"
class_name = "label 0"

[[record]]
compound = "O=[N+]([O-])c1ccc(P(=O)(Nc2ccc(Cl)cc2)Nc2ccc(Cl)cc2)cc1"
class_name = "label 1"

[[record]]
compound = "CN(C)S(=O)(=O)C(C(=O)Nc1ccccc1)c1ccccc1 (stereo not given)"
class_name = "label 0"

[[record]]
compound = "OCC1SC(O)C(O)C(O)C1O (stereo not given)"
class_name = "label 0"

[[record]]
compound = "CC(=O)Nc1ccc(S(=O)(=O)N=S(C)C)cc1"
class_name = "label 0"

[[record]]
compound = "COC1/C=C\\OC2(C)Oc3c(C)c(O)c4c(O)c(c(CN(C)C)c(O)c4c3C2=O)NC(=O)/C(C)=C\\C=C/C(C)C(O)C(C)C(O)C(C)C(OC(C)=O)C1C (stereo not given)"
class_name = "label 0"


### Prompt Test call for this compound, please: COC1=C(C)C(=O)C2=C(C1=O)C1C3CC4=C(C(=O)C(OC)=C(C)C4=O)C(CNC(=O)C(C)O)N3C(C#N)C(C2)N1C (stereo not given)
### Response label 0

### Prompt Same again, this time with CC(SC(=S)N1CCOCC1)c1cc2oc(=O)n(C)c2cc1Cl (stereo not given)
### Response label 0

* * *

Assay: NCI Yeast Anticancer Drug Screen. Data for the rad50 strain (AID 155);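 further: 0% = growth of vehicle-only cultures of the same strain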
Details: S. cerevisiae rad50 strain growth inhibition; at 50.0 µM
About 79,000 compounds went through this panel and 15% of them were active in at least one assay; those are over-represented in the sample as a whole. Active and inactive are the calls of the source. Rule as the data show it: active = growth inhibition above about 70%; inactive = the rest.
Answer with one of the outcomes given here: class 1 for active, class 0 for inactive

Previously resolved entries follow.
[[record]]
molecule = "COc1cc(CC2c3cc(OC)c(OC)cc3CC[N+]2(C)C)c(Oc2cc(CC3c4cc(OC)c(OC)cc4CC[N+]3(C)C)ccc2OC)cc1OC (stereo not given)"
class_name = "class 0"

[[record]]
molecule = "CN=c1ncc2nc(-c3ccccc3)c(-c3ccccc3)n(C)c-2n1"
class_name = "class 0"

[[record]]
molecule = "COC(=O)c1cc(/C=C/C(=O)Cc2ccccc2)cn1S(=O)(=O)c1ccccc1"
class_name = "class 0"


### Prompt Entry CC(=O)Nc1ccc(S(=O)(=O)CCN2C(=O)c3ccccc3C2=O)cc1 : call = ?
### Response class 0

### Prompt // same read-out, input: Cc1[nH]nc2c(=O)n(N)nnc12
### Response class 0

### Prompt Same thing, different molecule: [O-][N+](CCO)(CCO)Cc1ccccc1
### Response class 0

* * *

Assignment: determine reported growth inhibition for the given compounds.
Assay: NCI Yeast Anticancer Drug Screen. Data for the bub3 strain (AID 167)
Details: S. cerevisiae bub3 mutant strain, at 50.0 µM, active compounds read high
This is part of a sample that, as a whole, favours compounds with a hit. Of some 79,000 tested, about 15% had one in any assay.
Give bare numbers, in %.

Some compounds with known growth inhibition results, for comparison:
[[record]]
compound = "CCC1c2c(cc(=O)[nH]c2O)C(=O)N1C (stereo not drawn)"
test_value = -0.8

[[record]]
compound = "CC1=Nc2nc(=N)nc3cccc(n23)N1"
test_value = -7.7

[[record]]
compound = "Brc1cc2ccccc2nc1-c1ccccc1"
test_value = 5.05

[[record]]
compound = "COC(CC(=O)O)CC(C)CC(C)(C)C (stereo not drawn)"
test_value = 24.9

[[record]]
compound = "O=c1c2ccccc2c(=O)n2n1C1CCC2C1"
test_value = 1.85

[[record]]
compound = "CC1=CC(C)S(=O)(=O)C1 (stereo not drawn)"
test_value = -57.8

[[record]]
compound = "CC(=O)c1ccc(N=NN2CCCC2)cc1"
test_value = 34.2

[[record]]
compound = "CC(C)S(=O)(=O)c1s[nH]c(=O)c1-c1ccccc1"
test_value = -4.15

[[record]]
compound = "O=[N+]([O-])c1ccc(SCN(CSc2ccc([N+](=O)[O-])cc2)Cc2ccccc2)cc1"
test_value = 4.65

[[record]]
compound = "COC(=O)n1oc2c(Br)cc(Br)cc2c1=O"
test_value = -0.2


Your task in this section: give growth inhibition for each listed record.
1. CSc1c2c(c(C)c3c1[nH]c1ccccc13)C=NCC2
2. CCCCNC(=O)CC(C)C(=O)O (stereo not drawn)
3. O=C1OC2(CC1n1cnc3ccccc3c1=O)C(=O)Nc1ccccc12 (stereo not drawn)

### Response
1. 14
2. -1.55
3. -1.15
